- Tested on: SK-OV-3
Response field label: string, one of 1.0 (GI50 strictly below 3 µM) or 0.0.

Determine if COc1cc(-c2cc(-c3nc4ccccc4[nH]3)[nH]n2)cc(OC)c1OC [6f] shows GI50 strictly lower than 3 µM. 0.0

Lab note: GI50 threshold 3 µM. Does this compound come in strictly under it? c1ccc2[nH]c(-c3cc(-c4ccc5c(c4)OCO5)n[nH]3)nc2c1 [6g] 0.0

In plain terms, does COc1cc(-c2cc(-c3nc4cc(Cl)c(Cl)cc4[nH]3)[nH]n2)cc(OC)c1OC [10f] come in under 3 µM for GI50? 1.0

Does the reported GI50 of the following compound sit strictly below 3 µM? COc1ccc2[nH]c(-c3cc(-c4cc(OC)c(OC)c(OC)c4)n[nH]3)nc2c1 [9f] 1.0

Please determine if COc1cc(-c2cc(-c3nc4cc(Cl)ccc4[nH]3)[nH]n2)cc(OC)c1OC [8f] is below 3 µM in terms of GI50. 0.0

Input Fc1ccc2[nH]c(-c3cc(-c4ccc5c(c4)OCO5)n[nH]3)nc2c1 [7g] ; condition: GI50 strictly below 3 µM. Does it hold? 1.0

###

I'd be grateful if you could share measured GI50 for these entries.
Numbers only here, please. The scale is nM.

I looked up c1ccc2[nH]c(-c3cc(-c4ccc5c(c4)OCO5)n[nH]3)nc2c1 and its GI50 for OVCAR-8 was 3970

Tested system OVCAR-8; GI50 recorded for COc1ccc2[nH]c(-c3cc(-c4cc(OC)c(OC)c(OC)c4)n[nH]3)nc2c1 was 1150

For the molecule Fc1ccc2[nH]c(-c3cc(-c4ccc5c(c4)OCO5)n[nH]3)nc2c1 , the measured GI50 on OVCAR-8 was 3430

Tested on OVCAR-8, the item COc1cc(-c2cc(-c3nc4ccccc4[nH]3)[nH]n2)cc(OC)c1OC showed GI50 equal to 2350

# lookup: COc1cc(-c2cc(-c3nc4cc(Cl)c(Cl)cc4[nH]3)[nH]n2)cc(OC)c1OC [10f] on OVCAR-8, GI50 = 2510

The measured GI50 that COc1cc(-c2cc(-c3nc4cc(Cl)ccc4[nH]3)[nH]n2)cc(OC)c1OC showed for OVCAR-8 is 2260
